Tested on: acyl-homoserine lactone synthase BmaI1 (Burkholderia mallei ATCC 23344)
procedureDetails: BmaI1 acyl-homoserine lactone synthase inhibition – biochemical, fluorescence intensity, with counterscreen (AID 720554)
assayConditions: BmaI1 enzyme assay, concentration not given here
Out of some 12,000 compounds screened, about 45 (0.4%) were called active. Rule as the data show it: active = inhibition mostly above about 83% (no sharp cut-off); inactive = mostly below about 52%. The entries come from a sample that favours actives as a whole.
Give your call using only these classes: active, inactive

Some solved cases for reference:
NC(=O)c1ccc(-c2ccccc2)o1
inactive
Nc1nnc(-c2cccs2)c(=O)n1N
inactive
CCC(=O)Nc1ccc(C(=O)CN2C(=O)NC3(CCCc4ccccc43)C2=O)cc1 (configuration not stated)
inactive
CN(CC(=O)Nc1ccc(Cl)cc1)C(=O)c1ccc(OC(F)F)cc1
inactive

So what was the verdict on O=C(O)c1sc2sccc2c1Cl in this test?
inactive

So what was the verdict on O=C(N/N=C/c1sc(N2CCCCC2)nc1-c1cccs1)c1ccccc1 in this test?
inactive

So what was the verdict on CCCn1c(C)cc(/C=C(\C#N)C(=O)Oc2c(C)ccc(C)c2C)c1C in this test?
inactive

So what was the verdict on Cn1c(Cc2cccs2)nnc1SCC(=O)N1CCNC1=O in this test?
inactive

So what was the verdict on Cc1c(C(=O)O)sc2nc(CSc3nnc(-c4ccc(F)cc4)n3C)[nH]c(=O)c12 in this test?
inactive

So what was the verdict on C[C@@H](C(=O)N1CCSC1=NCc1ccccc1)N1C(=O)C2CC=CCC2C1=O (some centres not stated) in this test?
inactive

So what was the verdict on O=C1NC(c2cccc(O)c2O)Nc2sc3c(c21)CCC3 (configuration not stated) in this test?
active

So what was the verdict on O=C(COc1ncnc2ccc(Br)cc12)N1CCCCC1 in this test?
inactive

So what was the verdict on Cc1nn(-c2ccccc2)c2c1CC(C#N)(c1ccccn1)C1CCCN21 (configuration not stated) in this test?
inactive

So what was the verdict on c1cc2n[nH]nc2cn1 in this test?
inactive

So what was the verdict on O=C(CSc1ncc(C(F)(F)F)cc1Cl)N1CCN(S(=O)(=O)c2ccccc2)CC1 in this test?
inactive

So what was the verdict on CCN(CC)C(=S)SCc1ncc(-c2ccccc2)o1 in this test?
inactive

So what was the verdict on Cc1noc(C)c1COc1ccc(C(=O)OCC(N)=O)cc1 in this test?
inactive

So what was the verdict on CCn1c(CCC(=O)Nc2ccc(N3CCOCC3)cc2)nc2cc(S(=O)(=O)N(C)C)ccc21 in this test?
inactive

So what was the verdict on Cc1cc(C(=O)OCC(=O)c2ccc(NC(=O)CC(C)C)cc2)no1 in this test?
inactive

So what was the verdict on CC1CC(C)CN(C(=O)c2cc3ccccc3oc2=O)C1 (configuration not stated) in this test?
inactive

So what was the verdict on Nn1c(NNC(=O)c2ccccc2)nnc(-c2cccs2)c1=O in this test?
active

So what was the verdict on CCCCn1ccnc1C(=O)c1ccc(S(=O)(=O)N2CCCC2)cc1 in this test?
inactive

* * *

procedureDetails: BmaI1 acyl-homoserine lactone synthase inhibition – biochemical, fluorescence intensity, with counterscreen (AID 720554)
assayConditions: BmaI1 enzyme assay, measured here: counterscreen fluorescence % control, concentration not given here
In all, about 12,000 compounds went through this assay and about 45 (0.4%) were called active. For the sample, actives were picked, then their nearest neighbours and some compounds at random.
Quick list: inhibition per entry.
Hi! Could you send only the number? It should be in %, unit omitted.

CN(C(=O)c1ccco1)C1(c2ccccc2Cl)CCCCC1=O (stereo not drawn)
5.5
N#Cc1ccccc1NC(=O)CN1CCNC(=O)C1
5

// below: inhibition requested for another molecule
Quick one: inhibition for S=c1[nH]cc2ccccn12 ?
5.5

* * *

procedureDetails: BmaI1 acyl-homoserine lactone synthase inhibition – biochemical, fluorescence intensity, with counterscreen (AID 720554)
assayConditions: BmaI1 enzyme assay, measured here: counterscreen fluorescence % control, concentration not given here
Among all 12,000 compounds or so, about 45 (0.4%) were called active. The sample holds actives, similar compounds and a random draw of the others, so the mix is not that of the screen.
valueKind: inhibition (%)
Hi! Could you send only the number? It should be in %, unit omitted.

These recorded examples may help you get a feel for the data.
CC(Sc1nnnn1-c1ccc(O)cc1)C(=O)c1ccccc1 (stereo not given)
2.5
CC(=O)NS(=O)(=O)c1ccc(N)cc1
9.5

Quick one: inhibition for Nc1ccc(S(=O)(=O)c2ccc(N)cc2)cc1 ?
6

Quick one: inhibition for CCOC(=O)C1CCN(Cn2c(=S)oc3ccc(S(=O)(=O)CC)cc32)CC1 ?
-4

* * *

procedureDetails: BmaI1 acyl-homoserine lactone synthase inhibition – biochemical, fluorescence intensity, with counterscreen (AID 720554)
assayConditions: BmaI1 enzyme assay, measured here: counterscreen fluorescence % control, concentration not given here
About 45 (0.4%) of roughly 12,000 compounds were called active. Many of the other results were omitted from the sample, so actives are more common in it than they were.
Quick list: inhibition per entry.
Hi! Could you send only the number? It should be in %, unit omitted.

These recorded examples may help you get a feel for the data.
Cc1sc2ncnc(N)c2c1C
9.5
O=C1Cc2ccccc2C(=O)N1
7
FC(F)Oc1ccc(NC(=S)NNc2ccc(Cl)nn2)cc1
28
CC(=O)Nc1ccc(/C=N/n2cc(-c3ccccc3)[nH]c2=S)cc1
13.5
COC(=O)c1ccc(-n2c(C)cc(C(=O)CN3C(=O)CN(C)C3=O)c2C)cc1
-4.5
Oc1c(C(c2cccnc2)N2CCOCC2)ccc2cccnc12 (stereo unspecified)
28.5
CN(C)S(=O)(=O)c1cccc(-c2nnc3n2N=C(c2cccs2)CS3)c1
-1
Oc1c(C(c2cccnc2)N2CCCCC2)ccc2cccnc12 (stereo unspecified)
-53.5
CN(C)S(=O)(=O)c1cccc(-c2nnc3n2CCCCC3)c1
-2
CCN(C(=O)C(C)Sc1nc(C)cs1)c1ccccc1 (stereo unspecified)
3.5

Quick one: inhibition for O=C(N/N=C/c1sc(N2CCCCC2)nc1-c1cccs1)c1ccccc1 ?
-8.5

* * *

Quick list: inhibition per entry.
procedureDetails: BmaI1 acyl-homoserine lactone synthase inhibition – biochemical, fluorescence intensity, with counterscreen (AID 720554)
assayConditions: BmaI1 enzyme assay, measured here: counterscreen fluorescence % control, concentration not given here
The campaign covered roughly 12,000 compounds. About 45 (0.4%) were called active. This is one part of a sample in which actives are shown more often than they occur.
Hi! Could you send only the number? It should be in %, unit omitted.

These recorded examples may help you get a feel for the data.
Cn1cccc1C(=O)Nc1ccc2c(c1)nc1n2CCCCC1
27
CCOc1ccc(/C=N/N2C(=O)NC(C)(CC)C2=O)c(O)c1 (stereo unspecified)
-4.5
CC1Cc2ccccc2N1CC(=O)NCc1ccc2c(c1)OCO2 (stereo unspecified)
-28
Nc1nc2cc(S(=O)(=O)N3CCOCC3)ccc2o1
-5.5
Cc1csc(C(C#N)C(=O)CSc2ccc3c(c2)OCCO3)n1 (stereo unspecified)
0

// below: inhibition requested for another compound
Quick one: inhibition for O=C(COC(=O)/C=C/c1ccco1)Nc1cccc(C(F)(F)F)c1 ?
-1

* * *

procedureDetails: BmaI1 acyl-homoserine lactone synthase inhibition – biochemical, fluorescence intensity, with counterscreen (AID 720554)
assayConditions: BmaI1 enzyme assay, measured here: counterscreen fluorescence % control, concentration not given here
Among all 12,000 compounds or so, about 45 (0.4%) were called active. This excerpt belongs to a sample that is enriched for actives.
Quick list: inhibition per entry.

These recorded examples may help you get a feel for the data.
O=C(OCC(=O)N1CCC(Cc2ccccc2)CC1)c1ccc(O)cc1
-7.5%
Cc1noc(C)c1COc1ccc(C(=O)OCC(N)=O)cc1
3%
CN(CC(=O)Nc1ccc(Cl)cc1)C(=O)c1ccc(OC(F)F)cc1
17%
NC(=O)C1CCN(Cc2cc(=O)oc3cc(O)ccc23)CC1
-4.5%

Quick one: inhibition for Nn1c(NNC(=O)c2ccccc2)nnc(-c2cccs2)c1=O ?
11.5%

Quick one: inhibition for FC(F)Oc1ccc(NC(=S)NC2CCCC2)cc1 ?
-10.5%

Quick one: inhibition for O=C1c2ccccc2S(=O)(=O)N1Cc1cc(=O)[nH]c(=O)[nH]1 ?
-2.5%

Quick one: inhibition for Cc1cc(C(=O)Cn2cnc3sccc3c2=O)c(C)n1C1CC1 ?
8.5%

Quick one: inhibition for CC(=O)Nc1ccc(/C=N/N2C(=O)c3ccccc3C2=O)cc1 ?
14.5%

Quick one: inhibition for N#Cc1c(N)sn(-c2ccccc2)c1=S ?
11.5%

Quick one: inhibition for Cc1sc2ncnc(N3CCc4ccccc43)c2c1C ?
6%

Quick one: inhibition for Cc1c(CN2CC=C(c3ccccc3)CC2)c(=O)n(-c2ccccc2)n1C ?
-2.5%

Quick one: inhibition for Cc1cc(C(=O)CSc2ccccn2)c(C)n1Cc1cccs1 ?
12%

Quick one: inhibition for CC1=C/C(=N\NC(=O)COc2ccc(C#N)cc2)CC(C)(C)C1 ?
2%

Quick one: inhibition for c1coc(-c2nnc(-c3ccco3)nn2)c1 ?
34%
